- MEASUREMENT NOTES: NCI Yeast Anticancer Drug Screen. Data for the bub3 strain (AID 167)
- COND: S. cerevisiae bub3 mutant strain, at 50.0 µM
About 79,000 compounds went through this panel and 15% of them were active in at least one assay; those are over-represented in the sample as a whole. Active and inactive are the calls of the source. Rule as the data show it: active = growth inhibition above about 70%; inactive = the rest.
In this exercise, the only acceptable responses are class 1 = active, class 0 = inactive

Name the outcome recorded for O=C(O)c1cccc2cccc(-c3c4ccc(=O)c(O)c-4oc4c(O)c(O)ccc34)c12 in the assay.
class 1

# outcome recorded in this test, key = CCCc1cc(=O)oc2c3c(c4c(c12)OC(C)(C)CC4)OC(C)[C@H](C)[C@@H]3O (some centres undefined)
class 1

Outcome logged for C=c1c2ccccc2oc2nc3[nH]c(N)c(C#N)c(N)c3c(=N)c12 in this assay:
class 1

What classification did N#CC(=C1SCS1)[N+](=O)[O-] end up with in this test?
class 1

Per the records of this test, what outcome belongs to C/C(=N\NC(=S)N1CCC1)c1ccccn1 ?
class 1

Assay outcome for CC1=CC[C@@H]2[C@@H](CC[C@@]2(C)O)C(C)(C)[C@H]1CC[C@@H]1[C@@]2(C)CC[C@@H](O)C(C)(C)O[C@@H]2CC[C@]1(C)O : what was it?
class 0

Tell me the recorded outcome of this test for C[n+]1ccccc1C[n+]1ccccc1 .
class 0

// return assay outcome for C=[CH][Sn]([CH]=C)([O]c1cccc2cccnc12)[O]c1cccc2cccnc12
class 1

Called result for S=c1[nH]c2cc(Cl)ccc2s1
class 0

Check the results log: what was the call for CCCCCCC1N=C(N)N=C(N)N1c1cccc(Cl)c1 (centres undefined) ?
class 0

Tell me the recorded outcome of this test for O=C(Nc1cccc(C(F)(F)F)c1)Oc1ccc(Cl)c2cccnc12 .
class 1

Please state the recorded outcome for this compound: CCC(=O)c1cc([N+](=O)[O-])c(Br)s1
class 1

Record lookup: outcome of this test for CC(C)=CCCC(C)C1=C(O)C(=O)C(C)=CC1=O (centres undefined) ?
class 1

Could you please tell me the result logged for O=C1C(=O)c2cccnc2-c2ncccc21 in this assay?
class 1

For Cc1ccc(NC(=S)C#N)cc1Cl , what call appears in the results of this test?
class 0

Tell me the recorded outcome of this test for O=C(O)c1ccc2c(c1)C(=O)c1ccccc1C2=O .
class 1

Given O=[N+]([O-])C=C(c1ccccc1)c1ccccc1 , state the outcome it received in this test.
class 1

Look up the recorded call for CCCCCCCCc1cc(Cl)c(O)c(Cl)c1 in this test.
class 1

Tell me the assay call for COC(=O)Nc1nc2ccc(C3(c4ccc(F)cc4)OCCO3)cc2[nH]1 please.
class 1

Write down the call the test reported for this compound. Item: CN(C)CC(C)(CN(C)C)C(=O)/C=C/c1c(Cl)cccc1Cl
class 1

Any idea what this test logged for Cc1ccc(/C=C2\CNC/C(=C\c3ccc(C)cc3)C2=O)cc1 ?
class 1

Per the assay record, what outcome was assigned to CCOc1ccc(Nc2nc3c(s2)C(=O)c2ccccc2C3=O)cc1 ?
class 1

Kindly provide the recorded test outcome for the following compound: C=C(C)C1CC2(C)C(C)CC(O)CC2C(OC(=O)C=C(C)C)C1O (centres undefined)
class 1

Returns: the outcome recorded for CC/C(=C(/CC)c1ccc(O)cc1)c1ccc(O)cc1 in this assay.
class 1

Given COC(=O)[C@]1(C)CCC[C@@]2(C)[C@@H]3C[C@@H]4[C@H]5C[C@@]3(CC[C@@H]21)C[C@@]45C , state the outcome it received in this test.
class 1

Dear all, I need the recorded test outcome for CCC1C[N+]2=C(c3cc(OC)c(OC)cc3CC2)c2c1cc1n2CCc2cc(OC)c(OC)cc2-1 (centres undefined) , thank you.
class 1

Assay outcome for CC1(C)CCC2(C(=O)O)C(O)CC3(C)C(=CCC4C5(C)CCC(OC6OCC(O)C(O)C6OC6OCC(O)C(O)C6OC6OCC(O)C(OC7OC(CO)C(O)C(O)C7O)C6O)C(C)(C)C5CCC43C)C2C1 (centres undefined) : what was it?
class 1

Query: recorded result category for O=C(c1ccccc1)C(O)C(Br)(CBr)c1ccccc1 (centres undefined) in this test
class 1

In this assay, the call recorded for Oc1c(Cl)cc(Cl)cc1C=NCC1CCC(CN=Cc2cc(Cl)cc(Cl)c2O)CC1 (centres undefined) was what?
class 1

What outcome does the record of this test show for Nc1ncnc2c(C3OC(CO)C(O)C3O)c[nH]c12 (centres undefined) ?
class 1

State the result this test recorded for CC(C)(C)N/N=C(/Cc1nc2c3c(ccc2[nH]c1=O)C(=O)c1ccccc1C3=O)C(=O)NC1=C(Cl)C(=O)c2ccccc2C1=O .
class 0

Hi team, can someone confirm the assay call for O=[N+]([O-])c1ccc(Oc2ccccc2Cl)c([N+](=O)[O-])c1 ?
class 0

What was the test verdict on C[C@@]1(CO)[C@H](O)CC[C@@]2(C)[C@H]1CC[C@H]1C[C@@H]3C[C@@]12CC[C@@]3(O)COC(=O)CN ?
class 1

Hi, sorry to bother you, what did the test record for C/C(=N\NC(=S)N(C)C)c1ccccn1 ?
class 1

Dear colleague, could you share the recorded outcome for On1c(-c2ccccc2)nc2ccccc2c1=S when you have a moment?
class 1

Each compound tested received a call. Report the one for Oc1ccc(Nc2ccc3ccccc3c2)cc1 .
class 1

For CN(C)c1ccc(C(=C2C=CC(=[N+](C)C)C=C2)c2ccc(N(C)C)cc2)cc1 , what call appears in the results of this test?
class 1

State the result this test recorded for S=C1NC2=C(COc3ccccc32)C(c2ccc(Cl)cc2)N1 (centres undefined) .
class 1

Query: recorded result category for NC(CS/C(Cl)=C/Cl)C(=O)O (centres undefined) in this test
class 1

Field: outcome | Entry: CCCCCCCCC(=O)OCCCC(CCC(CCC1CCCO1)OC(=O)CCCCCCCC)OC(=O)CCCCCCCC (centres undefined)
class 0

Dear colleague, could you share the recorded outcome for CN1CCC(CN2c3ccccc3Sc3ccccc32)C1 (centres undefined) when you have a moment?
class 0

Look up the recorded call for Cc1cc(N/N=C/c2ccccn2)nc2ccccc12 in this test.
class 1

How did this test come out for OC(c1cc(-c2ccc(C(F)(F)F)cc2)nc(C(F)(F)F)c1)C1CCCCN1 (centres undefined) ?
class 0

Recorded call for O=C(NOC(=O)c1ccccc1)c1ccccc1 ?
class 1

From: PubChem BioAssay (NCI)
